The entries below are paired with their reported EC50 in PBMC Assay 1 (endogenous IL-18BP), IFNγ.
Target: T1, human IL-18BP (interleukin-18 binding protein, isoform A) (human, UniProt O95998 31-194)
T1 sequence: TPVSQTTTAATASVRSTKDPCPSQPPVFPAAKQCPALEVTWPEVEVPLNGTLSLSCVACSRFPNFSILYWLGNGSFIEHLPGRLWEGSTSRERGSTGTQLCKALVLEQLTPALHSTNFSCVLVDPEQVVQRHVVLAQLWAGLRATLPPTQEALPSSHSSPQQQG
Assay: cell-based or functional assay
ASSAY_ENDPOINT: EC50 in PBMC Assay 1 (endogenous IL-18BP), IFNγ (nM)

binder="SA318a (antibody, human IgG1, V domains shown, humanized; human IgG1 (suffix a), kappa) VH: QVQLQESGPGLVKPSQTLSLTCTVSGYSITQDYNAHWIRQPPGKGLEWIGYIHYSGQTMYNPSLKSRVTISRDTSKNQFSLKLSSVTAADTAVYYCARNFGSIYVNYFDYWGQGTLVTVSS VL: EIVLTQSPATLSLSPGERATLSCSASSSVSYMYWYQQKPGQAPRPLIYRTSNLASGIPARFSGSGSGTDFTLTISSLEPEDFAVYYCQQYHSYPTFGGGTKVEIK" value_observed=0.9
binder="SA327a (antibody, human IgG1, V domains shown, humanized; human IgG1 (suffix a), kappa) VH: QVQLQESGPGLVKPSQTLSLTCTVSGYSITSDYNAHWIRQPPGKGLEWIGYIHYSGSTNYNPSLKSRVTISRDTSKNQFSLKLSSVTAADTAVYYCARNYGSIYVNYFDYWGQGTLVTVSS VL: EIVLTQSPATLSLSPGERATLSCSASSSVSYMYWYQQKPGQAPRPLIYRTSNLASGIPARFSGSGSGTDFTLTISSLEPEDFAVYYCQQYHGYPTFGGGTKVEIK" value_observed=7.1
binder="SA329a (antibody, human IgG1, V domains shown, humanized; human IgG1 (suffix a), kappa) VH: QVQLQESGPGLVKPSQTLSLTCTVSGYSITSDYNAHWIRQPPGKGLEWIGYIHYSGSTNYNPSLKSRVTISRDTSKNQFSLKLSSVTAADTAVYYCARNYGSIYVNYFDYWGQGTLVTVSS VL: EIVLTQSPATLSLSPGERATLSCSASSSVSYMYWYQQKPGQAPRPLIYRTSNLASGIPARFSGSGSGTDFTLTISSLEPEDFAVYYCQQYHSYPKFGGGTKVEIK" value_observed=5.3
binder="SA303a (antibody, human IgG1, V domains shown, humanized; human IgG1 (suffix a), kappa) VH: QVQLQESGPGLVKPSQTLSLTCTVSGYSITSDYNAHWIRQPPGKGLEWIGYIHYSGSTNYNPSLKSRVTISRDTSKNQFSLKLSSVTAADTAVYYCARNFGSIYVNYFDYWGQGTLVTVSS VL: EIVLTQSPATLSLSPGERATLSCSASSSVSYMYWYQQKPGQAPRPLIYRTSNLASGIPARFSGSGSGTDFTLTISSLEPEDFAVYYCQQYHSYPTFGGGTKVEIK" value_observed=1.6
binder="SA325a (antibody, human IgG1, V domains shown, humanized; human IgG1 (suffix a), kappa) VH: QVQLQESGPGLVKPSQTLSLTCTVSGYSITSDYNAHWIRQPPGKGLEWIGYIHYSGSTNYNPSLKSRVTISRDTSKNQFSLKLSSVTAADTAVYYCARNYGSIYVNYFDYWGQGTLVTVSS VL: EIVLTQSPATLSLSPGERATLSCSASSSVSYMYWYQQKPGQAPRPLIYRTSNLASGIPARFSGSGSGTDFTLTISSLEPEDFAVYYCQEYHSYPTFGGGTKVEIK" value_observed=6.1
binder="SA328a (antibody, human IgG1, V domains shown, humanized; human IgG1 (suffix a), kappa) VH: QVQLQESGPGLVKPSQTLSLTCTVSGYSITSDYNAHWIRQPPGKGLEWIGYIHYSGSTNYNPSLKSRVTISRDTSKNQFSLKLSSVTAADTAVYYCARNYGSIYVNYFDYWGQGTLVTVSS VL: EIVLTQSPATLSLSPGERATLSCSASSSVSYMYWYQQKPGQAPRPLIYRTSNLASGIPARFSGSGSGTDFTLTISSLEPEDFAVYYCQQYHSYVTFGGGTKVEIK" value_observed=2
binder="SA306a (antibody, human IgG1, V domains shown) VH: QVQLQESGPGLVKPSQTLSLTCTVSGYSITSDYNNHWIRQPPGKGLEWIGYIHYSGSTNYNPSLKSRVTISRDTSKNQFSLKLSSVTAADTAVYYCARNYGSIYVNYFDYWGQGTLVTVSS VL: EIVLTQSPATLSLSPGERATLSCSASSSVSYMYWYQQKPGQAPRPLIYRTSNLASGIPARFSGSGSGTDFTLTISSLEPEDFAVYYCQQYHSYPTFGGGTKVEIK" value_observed=127
binder="SA312a (antibody, human IgG1, V domains shown, humanized; human IgG1 (suffix a), kappa) VH: QVQLQESGPGLVKPSQTLSLTCTVSGYSITQDYNAHWIRQPPGKGLEWIGYIHYSGSTMYNPSLKSRVTISRDTSKNQFSLKLSSVTAADTAVYYCARNYGSIYVNYFDYWGQGTLVTVSS VL: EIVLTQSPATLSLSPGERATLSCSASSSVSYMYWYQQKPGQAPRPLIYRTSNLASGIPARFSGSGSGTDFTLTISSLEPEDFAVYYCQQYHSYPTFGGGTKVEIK" value_observed=2.1
binder="SA317a (antibody, human IgG1, V domains shown, humanized; human IgG1 (suffix a), kappa) VH: QVQLQESGPGLVKPSQTLSLTCTVSGYSITSDYNAHWIRQPPGKGLEWIGYIHYSGSTLYNPSLKSRVTISRDTSKNQFSLKLSSVTAADTAVYYCARNYGSIYVNYFDYWGQGTLVTVSS VL: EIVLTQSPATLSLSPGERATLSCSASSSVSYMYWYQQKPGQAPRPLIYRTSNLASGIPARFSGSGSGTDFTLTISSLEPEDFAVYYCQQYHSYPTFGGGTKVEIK" value_observed=0.4
binder="SA309a (antibody, human IgG1, V domains shown, humanized; human IgG1 (suffix a), kappa) VH: QVQLQESGPGLVKPSQTLSLTCTVSGYSITSDYNAHWIRQPPGKGLEWIGYIHYSGQTNYNPSLKSRVTISRDTSKNQFSLKLSSVTAADTAVYYCARNYGSIYVNYFDYWGQGTLVTVSS VL: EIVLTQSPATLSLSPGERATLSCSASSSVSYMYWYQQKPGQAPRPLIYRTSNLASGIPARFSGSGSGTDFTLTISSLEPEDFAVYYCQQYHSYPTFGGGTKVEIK" value_observed=2.8
